- Test system: NCI-H522 lung
- experiment notes: NCI-60 one-dose screen, 48 h (100 = growth as untreated, 0 = no growth, -100 = all killed)
- settings: 10 µM unless noted
About 83,000 compounds went through this panel and 20% of them were active in at least one assay; those are over-represented in the sample as a whole.

- molecule: "CCC(C)[C@@H]1NC(=O)[C@@H]2CCCN2C(=O)[C@H](Cc2ccccc2)NC(=O)[C@@H]2CCCN2C(=O)[C@H](Cc2ccccc2)NC(=O)[C@@H]2CCCN2C(=O)[C@H](Cc2ccccc2)NC1=O (stereo partly drawn)"
  assayed system: "NCI-H522 lung"
  growth (%): 96.3
- molecule: "COc1cc2cc(COc3nccc(-c4ccc(Cl)cc4)n3)c(=O)[nH]c2cc1OC"
  assayed system: "NCI-H522 lung"
  growth (%): 108
- molecule: "Cc1cc(=O)oc2cc(Oc3nc(-c4cccs4)cn4c(-c5cccs5)cnc34)ccc12"
  assayed system: "NCI-H522 lung"
  growth (%): 74.6

###

- System: SR leukemia
- experiment notes: NCI-60 one-dose screen, 48 h (100 = growth as untreated, 0 = no growth, -100 = all killed)
- settings: 10 µM unless noted
The panel holds about 83,000 compounds, 20% with a hit somewhere; the sample as a whole holds those more often.

- compound: "Nc1nc(SCc2ccccc2)c2ncn(C3CCCC3)c2n1"
  growth / %: 81.4
- compound: "CS(CCCCN=C=S)=NC(=O)c1c(F)c(F)c(F)c(F)c1F (configuration not stated)"
  growth / %: 2.68
- compound: "O=C(CCCCN1CCOCC1)Nc1ccc(Cn2nnc3c2C(=O)c2nnn(Cc4ccc(NC(=O)CCCCN5CCOCC5)cc4)c2C3=O)cc1"
  growth / %: -22.2
- compound: "CCCCN(CCCC)CCC(C)(O)c1cc2ccccc2c2ccccc12 (configuration not stated)"
  growth / %: 39.7
- compound: "Cc1cc(Nc2nc(N3CCN(C)CC3)nc3ccccc23)n[nH]1"
  growth / %: 20.7
- compound: "O=C(/C=C\\c1cccc([N+](=O)[O-])c1)c1ccccc1"
  growth / %: 12.7
- compound: "CCOC(=O)c1c2c(n3ccc(NC(=O)CCN4CCCCC4)cc13)C(=O)c1ncccc1C2=O"
  growth / %: -46.6
